# experiment_description: self-splicing fitness, log relative to wild type (ln ratio); higher = more splicing; Tetrahymena group I intron in knt gene, E. coli kanamycin selection, DiMSum; sequences stand for … in CUCUCU…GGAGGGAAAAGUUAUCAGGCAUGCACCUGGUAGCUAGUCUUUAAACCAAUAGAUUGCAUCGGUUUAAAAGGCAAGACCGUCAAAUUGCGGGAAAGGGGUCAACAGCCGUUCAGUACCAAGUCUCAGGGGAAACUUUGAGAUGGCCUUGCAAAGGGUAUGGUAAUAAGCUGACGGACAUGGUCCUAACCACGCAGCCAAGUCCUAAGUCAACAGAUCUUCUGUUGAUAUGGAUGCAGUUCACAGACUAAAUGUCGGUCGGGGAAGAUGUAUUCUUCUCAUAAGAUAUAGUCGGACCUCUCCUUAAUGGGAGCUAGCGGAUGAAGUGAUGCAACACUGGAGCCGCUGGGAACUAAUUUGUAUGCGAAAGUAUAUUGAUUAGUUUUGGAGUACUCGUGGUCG;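 also: selection with 25 µg/mL kanamycin versus none on LB agar overnight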
# conditions: 37 °C
self-splicing fitness (ln) values by entry
// no unit, no text: just the number

Example entries begin here.
GCGGAGCAAUAUUACGGAGA = -1.71
UGUUAGCAAUAUUACGUUUA = -0.902
CAUCAGCAAUAUUACGGUCG = 0.236

Now look at this one.
Item AGAAAGCAAUAUUACGUACC has what recorded self-splicing fitness (ln)?
0.446

* * *

# experiment_description: self-splicing fitness, log relative to wild type (ln ratio); higher = more splicing; Tetrahymena group I intron in knt gene, E. coli kanamycin selection, DiMSum; sequences stand for … in CUCUCU…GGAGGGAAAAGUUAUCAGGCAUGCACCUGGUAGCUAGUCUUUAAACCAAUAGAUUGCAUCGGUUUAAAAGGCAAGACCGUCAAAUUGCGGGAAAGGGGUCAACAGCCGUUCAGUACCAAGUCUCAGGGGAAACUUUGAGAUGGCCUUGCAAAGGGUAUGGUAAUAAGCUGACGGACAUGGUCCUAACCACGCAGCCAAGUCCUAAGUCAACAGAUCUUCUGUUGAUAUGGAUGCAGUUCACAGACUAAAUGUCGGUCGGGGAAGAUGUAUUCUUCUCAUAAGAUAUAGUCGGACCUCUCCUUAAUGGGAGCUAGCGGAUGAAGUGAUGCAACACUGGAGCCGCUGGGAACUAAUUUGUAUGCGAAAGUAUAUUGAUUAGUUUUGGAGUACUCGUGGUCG
# conditions: 30 °C
readout_name: self-splicing fitness (ln)
Output: the number by itself.

GCCGAGCAAUAUUACGCAUA = -3.39

Now look at this one.
Form field: reported self-splicing fitness (ln) of GAGCAGCAAUAUUACGCAGA
-3.22

* * *

# experiment_description: self-splicing fitness, log relative to wild type (ln ratio); higher = more splicing; Tetrahymena group I intron in knt gene, E. coli kanamycin selection, DiMSum; sequences stand for … in CUCUCU…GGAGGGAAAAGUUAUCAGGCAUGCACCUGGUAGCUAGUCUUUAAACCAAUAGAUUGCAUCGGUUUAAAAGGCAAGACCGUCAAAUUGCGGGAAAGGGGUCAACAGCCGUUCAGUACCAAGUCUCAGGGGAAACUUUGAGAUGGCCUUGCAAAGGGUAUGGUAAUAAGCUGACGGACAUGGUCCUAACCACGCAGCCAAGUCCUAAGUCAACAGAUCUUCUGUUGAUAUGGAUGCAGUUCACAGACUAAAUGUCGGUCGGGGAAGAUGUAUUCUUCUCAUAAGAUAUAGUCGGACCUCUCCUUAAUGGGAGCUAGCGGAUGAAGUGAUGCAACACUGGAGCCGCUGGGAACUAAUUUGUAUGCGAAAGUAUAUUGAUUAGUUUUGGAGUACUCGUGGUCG
# conditions: 30 °C
The following sequences are listed with their measured self-splicing fitness (ln) values.
Answer with a bare number; do not write a unit.

ACGAAGCAAUAUUACGACCA = -0.752
GCGGAGCAAUAUUACGAUCA = -2.43
ACACAGCAAUAUUACGUAUC = -3.71

Tell me the measured self-splicing fitness (ln) of GGUCAGCAAUAUUACGGUUC , please.
0.308

Next entry: UGUAAGCAAUAUUACGGGCC
-2.87

Now this one: GCUGAGCAAUAUUACGAGCC
-1.55

And what about the sequence AUAGAGCAAUAUUACGUUGA ?
-1.89

Next sequence: UGUAAGCAAUAUUACGGGGG
-3.46

Source: the supplement of paper PMC7877785
